target: Leukotriene B4 receptor (Cavia porcellus); assay: Inhibition of leukotriene B4 (LTB4) binding to guinea pig spleen
RECORDED METRIC: IC50 (nM)

1. CC(C)(C(=O)O)c1ccc2c(c1)OC[C@H](Cc1ccccc1)C2 : 17000
2. CC(C)(C(=O)O)c1ccc2c(c1)OC[C@H](Cc1ccc(Cl)cc1)[C@H]2O : 4000
3. CC(C)(C(=O)O)c1ccc2c(c1)OC[C@H](Cc1ccccc1)[C@H]2O (stereo in doubt; 8) : 1300
4. O=C(O)C1(c2ccc3c(c2)OC[C@H](Cc2ccccc2)[C@H]3O)CCCC1 (stereo in doubt) : 3400
5. CC(C)(C(=O)O)c1ccc2c(c1)OC[C@H](Cc1ccccc1)[C@H]2O (stereo in doubt; 6) : 1200
6. O=C(O)C1(c2ccc3c(c2)OC[C@H](Cc2ccccc2)[C@H]3O)CCCCC1 (stereo in doubt; 15) : 240
7. O=C(O)C1(c2ccc3c(c2)OC[C@H](Cc2ccccc2)[C@H]3O)CCCC1 (stereo in doubt; 11) : 320
